Please go through the items and note down their melting point.
Dear colleague, please return just the value in °C, with no unit written.

input: Identify melting point associated with the molecule c1cnc(-c2cccc3ncccc23)c(N2CCN(c3ccncc3)CC2)c1
output: 96

input: Identify melting point associated with the molecule OC(c1ccccc1)(c1ccccc1)c1ncccc1N1CCN(c2ccncc2)CC1
output: 260

input: Identify melting point associated with the molecule COc1ccc(-c2ncccc2N2CCN(c3ccncc3)CC2)cc1
output: 216

input: Identify melting point associated with the molecule COc1ccc(-c2ccc(-c3ncccc3N3CCN(c4ccncc4)CC3)cc2)cc1
output: 178

input: Identify melting point associated with the molecule Clc1cc(N2CCN(c3cccnc3-c3ccccc3)CC2)ccn1
output: 122

input: Identify melting point associated with the molecule c1cnc(-c2ccc3c(c2)CCO3)c(N2CCN(c3ccncc3)CC2)c1
output: 200

input: Identify melting point associated with the molecule OCCCn1c(-c2ncccc2N2CCN(c3ccncc3)CC2)cc2ccccc21
output: 110

input: Identify melting point associated with the molecule c1cnc(-c2ccc3cc[nH]c3c2)c(N2CCN(c3ccncc3)CC2)c1
output: 195

input: Identify melting point associated with the molecule c1cnc(-c2ccc3c(c2)OCO3)c(N2CCN(c3ccncc3)CC2)c1
output: 187.8
